Species on record: Oryctolagus cuniculus
Experiment: Percentage inhibition of Transglutaminase activity in rabbit at 10 nM.
experimental readout: Transglutaminase activity (% of control) (%)

I: C/C(=C\c1ccc(C(=O)O)cc1)c1ccc2c(c1)C(C)(C)CCC2(C)C
II: CC1=C(/C=C/C(C)=C/C=C/C(C)=C/C(=O)O)C(C)(C)CCC1
III: C/C(=C(/C)c1ccc2c(c1)C(C)(C)CCC2(C)C)c1ccc(C(=O)O)cc1
Incoming: // sort entries: Transglutaminase activity (% of control), high to low Sort the labels as requested; that list is your answer.
Outgoing: III, II, I
(III: 68%, II: 15%, I: 1%)
